All values here come from ChEMBL document CHEMBL5096242.

# measurementProtocol: MRT in Wistar rat at 1 mg/kg, po and measured upto 24 hrs
# Assay type: ADME, organism-based
# conditionSet: plasma, 3 mg/kg, in the assay text read “3 mg/kg” for “1 mg/kg”
measuredProperty: MRT (h)
Report the figure in h without appending any unit label.

[Q] What value of MRT has been reported for the following compound? Clc1ccc(Nc2nc3ccccc3c3[nH]c(C4CCC=CCC4)nc23)cc1Cl
[A] 3.98

###

# measurementProtocol: Clearance in Wistar rat plasma at 10 mg/kg, po and measured upto 24 hrs
# Type: ADME, organism-based
measuredProperty: CL/F (mL/min/kg)
Report the figure in mL/min/kg without appending any unit label.

[Q] What value of CL/F has been reported for the following compound? Clc1ccc(Nc2nc3ccccc3c3[nH]c(C4CCC=CCC4)nc23)cc1Cl
[A] 16.2
